- Tested on: RAW 264.7 cells
- ASSAY INFO: Quantitative cell-permeability of FITC-labeled aMTD- or rPeptide-fused CRA recombinant proteins (flow cytometry)
- Type: cell-based
- SETTINGS: cell-permeability of aMTD-fused CRA recombinant protein relative to reference CPP (C: MTD85)
VALUE TYPE: Relative Ratio (Fold) C

> print(dat)
                                  substance  experimental.result
1  806 (LVALAVPAAVLP; Amino acid Sequence of aMTD806) [compound 806]                 12.4
2  686 (AALVAVLPVALP; Amino acid Sequence of aMTD686) [compound 686]                  6.6
3  343 (IVAVALPALVAP; Amino acid Sequence of aMTD343) [compound 343]                  6.5
4  264 (LAAAPVVIVIAP; Amino acid Sequence of aMTD264) [compound 264]                  6.1
5  829 (AALALVAPVIVP; Amino acid Sequence of aMTD829) [compound 829]                 15.2
6  891 (ILAVAAIPAALP; Amino acid Sequence of aMTD891) [compound 891]                 15.1
7  850 (LVIALAAPVALP; Amino acid Sequence of aMTD850) [compound 850]                  3.0
8  863 (AAVVLLPIIAAP; Amino acid Sequence of aMTD863) [compound 863]                  4.7
